Please go through the items and note down their %Inh.
tested on: EPHA1; details: concentration: 1 μM,replicates: in singlicate; n = 1;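 note: KINOMEscan kinase panel screen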
Report the value in % with no unit label.

Exam item: Would you kindly share the measured %Inh for `O=C(Nc1ccc(Oc2ccc3nc(NC(=O)C4CC4)cn3n2)c(F)c1)c1cccn(-c2ccccc2)c1=O` ?
Marked response: 51

Exam item: Recorded %Inh of `Nc1nccc(-c2ccc3c(N)n[nH]c3c2)n1` , please.
Marked response: 11

Exam item: What value of %Inh has been recorded for this entry: COc1ccc(Nc2nccc(N3CCC(NC(=O)c4cccc(C#N)c4)C3)n2)cc1 (centres unmarked)
Marked response: 27

Exam item: I have this compound here, `CS(=O)(=O)c1cccc(CNc2nc(Nc3ccc4c(c3)[C@@H]3C[C@@H]4CNC3=O)ncc2C(F)(F)F)c1` , and I need its recorded %Inh.
Marked response: 12

Exam item: Which %Inh value belongs to `C[C@@H]1CNc2c(sc3ccc4nc(-c5ccncc5)ccc4c23)C(=O)N1` ?
Marked response: 7

Exam item: Report %Inh for `Cl.Cl.NC[C@H](CC1CCCCC1)NC(=O)c1ccc(-c2ccnc3[nH]ccc23)s1` please.
Marked response: 7

Exam item: What value of measured %Inh is listed for COc1cccc(CNC(=O)NC2CCN(c3ccnc(Nc4cc(OC)c(OC)c(OC)c4)n3)C2)c1 (centres unmarked) ?
Marked response: 11

Exam item: If you can, please state the reported %Inh value of `C[C@@H](Oc1cc(-n2cnc3ccc(-c4ccncc4)cc32)sc1C(N)=O)c1ccccc1Cl` .
Marked response: 17

Exam item: Consider the compound shown here: `O=C(Nc1cccc(Oc2ccc3nccn3n2)c1)Nc1cccc(C(F)(F)F)c1` What is its recorded %Inh?
Marked response: 21

Exam item: Request the reported %Inh associated with `O=C(Nc1ccccc1)c1cccc(Oc2ccc3nccn3n2)c1`
Marked response: 7

Exam item: // lookup %Inh for `Cl.c1ccc(Oc2ccc(Nc3ccnc4cc(-c5ccc(CN6CCNCC6)o5)ccc34)cc2)nc1`
Marked response: 77

Exam item: Give its %Inh value. Item: `COC(=O)c1cccc(NC(=O)NC2CCN(c3ccnc(NCc4ccc(F)cc4)n3)CC2)c1`
Marked response: 0

Exam item: Which %Inh value belongs to `Cn1ccc2ncnc(Oc3ccc(NC(=O)Nc4cncc(C(F)(F)F)c4)c(Cl)c3)c21` ?
Marked response: 17

Exam item: // query %Inh value for entry `c1ccc(Oc2ccc(Nc3ccnc4ccc(-c5ccccn5)cc34)cc2)cc1`
Marked response: 31

Exam item: Would you kindly share the measured %Inh for COC(=O)c1cccc(NC(=O)NC2CCN(c3ccnc(Nc4cc(OC)c(OC)c(OC)c4)n3)C2)c1 (centres unmarked) ?
Marked response: 0

Exam item: What value of %Inh has been recorded for this entry: `O=C(NCC1CC1)c1ccc(-c2cc(C(=O)NC3CC3)ccc2F)cc1`
Marked response: 0

Exam item: So what does the record say about %Inh for `O=C1NCCc2[nH]c(-c3ccncc3)cc21` ?
Marked response: 2
